Please respond with reported Potency for every item in the list.
Assay: cAMP Responsive Elements (CRE) small molecule antagonists, cell-based qHTS assay (AID 1963591); further: potency means the concentration at half of the fitted maximal effect
Conditions: CRE-bla HEK293T, beta-lactamase FRET ratio; series mostly up to 92.4 µM
Inconclusive results are not listed. The source made the active and inactive calls. The call rests on the fitted dose curve; in most records, active means well fitted inhibition curve with a large enough effect in the signal ratio in the repeat runs (not every such curve was filed as active); inconclusive means weak or mixed curves, or effect the other way; inactive means flat fitted curve, though single readings scatter; the % refers to the signal ratio.

compound="O=C1OC(O)C(C(Cl)Cl)=C1Cl (centres undefined)" data_value="44.6 µM (active)"
compound="CN1C(=O)N(c2ccccc2Br)Cc2cnc(Nc3ccc4c(c3)OCC(CO)O4)nc21 (centres undefined)" data_value="57 µM (active)"

# batch: return Potency for each of the 2 compounds below
1. C[C@]1(Cn2ccnn2)[C@H](C(=O)O)N2C(=O)C[C@H]2S1(=O)=O
2. CC(C)C(O)C(C)(C)CO (centres undefined)

1: 1.88 µM (active); 2: 56.2 µM (active)

----------
Assay: p53 small molecule agonists, cell-based qHTS assay with human liver microsomes: qHTS cell viability counter screen (AID 1963579); further: on the % scale 0 is the no-effect control and ±100 the full control effect; nearly all actives have a fitted effect of over 45% in size
Details: p53RE-bla HCT-116 viability, ATP luminescence, 16 h, HLM; series mostly up to 66 µM
Results filed as inconclusive are left out. Activity calls are given as the source filed them. Calls follow the shape of the full dose curve.
Result Type: activity change, negative = cytotoxicity

compound=NCC[C@H](O)C(=O)N[C@@H]1C[C@H](N)[C@@H](O[C@H]2O[C@H](CN)[C@@H](O)[C@H](O)[C@H]2O)[C@H](O)[C@H]1O[C@H]1O[C@H](CO)[C@@H](O)[C@H](N)[C@H]1O result_type="activity change, negative = cytotoxicity" data_value="4.34% [at 0.249 µM] (inactive)"
compound="CC(O)COC(C)(C)C (centres undefined)" result_type="activity change, negative = cytotoxicity" data_value=inactive
compound=CC/C=C\CCCCO result_type="activity change, negative = cytotoxicity" data_value=inactive
compound=Cc1cnc(C)c(C)n1 result_type="activity change, negative = cytotoxicity" data_value=inactive
compound=CCCCC(=O)OCC(=O)[C@H]1[C@H](C)C[C@H]2[C@@H]3C[C@H](F)C4=CC(=O)C=C[C@]4(C)[C@@]3(F)[C@@H](O)C[C@@]21C result_type="activity change, negative = cytotoxicity" data_value=inactive
compound=CN(C)CCCOc1nn(Cc2ccccc2)c2ccccc12 result_type="activity change, negative = cytotoxicity" data_value=inactive

The following compounds each have a reported value; give each one's activity change, negative = cytotoxicity.
1. Cc1nc2n(c(=O)c1CCN1CCC(C(=O)c3ccc(F)cc3)CC1)CCS2
2. COc1cccc([C@H](O)C2CCN(CCc3ccc(F)cc3)CC2)c1OC

inactive
inactive

Answer for every listed entry: what is its activity change, negative = cytotoxicity? The entries follow.
1. Cc1ccc(/C=N/n2c(-c3ccccc3)csc2=S)cc1
2. CCCCCCCCCCOC(C)=O
3. FC1(F)C(F)(F)C(F)(F)C2(F)C(F)(C1(F)F)C(F)(F)C(F)(F)C1(F)C(F)(F)C(F)(F)C(F)(F)C(F)(F)C12F (centres undefined)
4. CCCCCCCCCCOCC(O)CN (centres undefined)
5. CC/C=C\CCOC(=O)c1ccccc1

["inactive", "inactive", "inactive", "inactive", "inactive"]

Take each entry in turn and give its activity change, negative = cytotoxicity.
1. N=c1ccn2c(n1)O[C@H]1[C@H](O)[C@@H](CO)O[C@H]12
2. C#CC(O)CCCCC (centres undefined)
3. CCOC(=O)c1ncn2c1CN(C)C(=O)c1cc(F)ccc1-2

inactive
inactive
inactive

Please state, for each entry, its recorded activity change, negative = cytotoxicity.
1. Oc1ccc(Nc2ccccc2)cc1
2. CC(O)c1ccccc1 (centres undefined)
3. CCCCCCCCCCCCCCCCCCOS(=O)(=O)O
4. CC(C)CC(=O)C1C(=O)c2ccccc2C1=O
5. CCCCCCCC1CCCC1=O (centres undefined)
6. [O-][n+]1cccc(/C(Cl)=N/OC[C@@H](O)CN2CCCCC2)c1

["inactive", "inactive", "inactive", "inactive", "inactive", "inactive"]

Please state activity change, negative = cytotoxicity for every compound in the list that follows.
1. CC1(C)S[C@@H]2[C@H](NC(=O)Cc3ccccc3)C(=O)N2[C@H]1C(=O)O (tested in a mixture with another compound)
2. OCCC(F)(F)C(F)(F)C(F)(F)C(F)(F)C(F)(F)C(F)(F)C(F)(F)C(F)(F)F

1: inactive; 2: inactive
